Catalogue of molecules with associated IC50
Test system: VEGF-stimulated ADSC/ECFC co-culture, nuclear area imaging
Assay: nuclear area loss in endothelial-stromal co-culture, dose response, cell-based, VEGF stimulation, IC50 (AID 1117324)
Active and inactive are the calls of the source. How the calls were made is not given here.

Some solved entries appear below for comparison.
Note to self: IC50 recorded for CC[C@@]1(O)C(=O)OCc2c1cc1n(c2=O)Cc2c-1nc1ccccc1c2/C=N/OC(C)(C)C was 0.799 µM

In plain terms, CC(=O)O[C@@]12CO[C@@H]1C[C@H](O)[C@@]1(C)C(=O)[C@H](O)C3=C(C)[C@@H](OC(=O)[C@H](O)[C@@H](NC(=O)OC(C)(C)C)c4ccccc4)C[C@@](O)([C@@H](OC(=O)c4ccccc4)[C@H]21)C3(C)C has a documented IC50 of > 10 µM (inactive)

Record CC(=O)Nc1ccn(C2COC(COC(=O)c3ccccc3)O2)c(=O)n1 (stereo not given) , field IC50: > 10 µM (inactive)

Quick note, IC50 for CC(C)(C)C(=O)OCOP(=O)(COCCn1cnc2c(N)ncnc21)OCOC(=O)C(C)(C)C landed at > 10 µM (inactive)

Measured IC50 of CCCCCCCCCCCCCC[N+](C)(C)C : 6.68 µM (inactive)

***
Documented IC50 of O=C(O)C1CCC1 : > 10 µM (inactive)

Documented IC50 of O=C(Nc1ccc([N+](=O)[O-])cc1Cl)c1cc(Cl)ccc1O : 5.81 µM (inactive)

IC50 measured on CCCCC[C@@H](O)CC[C@H]1[C@@H]2Cc3cccc(OCC(=O)O)c3C[C@@H]2C[C@@H]1O = > 10 µM (inactive)

====

Item-by-item account of IC50
System: VEGF-stimulated ADSC/ECFC co-culture, nuclear area imaging
Experiment: nuclear area loss in endothelial-stromal co-culture, dose response, cell-based, VEGF stimulation, IC50 (AID 1117324)
Active and inactive are the calls of the source. The rule behind the calls is not given here.

Below: 5 compounds and their reported IC50.
Just so you know, measured IC50 for C1CN(P2(N3CC3)=NP(N3CC3)(N3CC3)=NP(N3CC3)(N3CC3)=N2)CCO1 (stereo not drawn) came out at > 10 µM (inactive)

For record CCCCCCCCCCCC(=O)[O][Sn]([CH2]CCC)([CH2]CCC)[O]C(=O)CCCCCCCCCCC the listed IC50 is > 10 µM (inactive)

Measured IC50 of CC(C)(C)C1CCC(CC2=C(O)c3ccccc3C(=O)C2=O)CC1 (stereo not drawn) : > 10 µM (inactive)

Lookup result for COc1ccc(/C=C/C(=O)c2ccc(OC)cc2OC)cc1 ; measured IC50: > 10 µM (inactive)

IC50 for Clc1ccc(Nc2nnc(Cc3ccncc3)c3ccccc23)cc1 is > 10 µM (inactive)

Lab note: next compound to report on.
Looking up COc1cc([C@@H]2c3cc4c(cc3[C@@H](O[C@@H]3O[C@@H]5CO[C@@H](C)O[C@@H]5[C@H](O)[C@@H]3O)[C@H]3COC(=O)[C@H]23)OCO4)cc(OC)c1O , I found its IC50 recorded as 0.967 µM

====

IC50 overview
System: VEGF-stimulated ADSC/ECFC co-culture, nuclear area imaging
Test: nuclear area loss in endothelial-stromal co-culture, dose response, cell-based, VEGF stimulation, IC50 (AID 1117324)
Active and inactive are the calls of the source. The rule behind the calls is not given here.

Field: example entries. Status: answers known.
Looking up CSc1ccc2c(c1)C(N1CCN(C)CC1)Cc1ccccc1S2 (centres undefined) , I see its IC50 listed as > 10 µM (inactive)

Looking up CC(C)(C)CC(C)(C)c1ccc(O)cc1 , I found its IC50 recorded as 9.11 µM (inactive)

The compound identified as Cc1ccccc1C(=O)Nc1ccc(C(=O)N2CCCC(N(C)C)c3ccccc32)cc1 (centres undefined) registered its IC50 at > 10 µM (inactive)

Looking up CN1CCN(c2cc3c(nn2)Oc2ccccc2N3C)CC1 , I found its IC50 recorded as > 10 µM (inactive)

Documented IC50 of CN1CCCC(CC2c3ccccc3Sc3ccccc32)C1 (centres undefined) : > 10 µM (inactive)

Documented IC50 of O=C(Nc1ccc([N+](=O)[O-])cc1)Nc1ccc([N+](=O)[O-])cc1 : > 10 µM (inactive)

---
Memo: COC(=O)C1=C(C)NC(C)=C(C(=O)O[C@@H]2CCCN(Cc3ccccc3)C2)[C@@H]1c1cccc([N+](=O)[O-])c1 , reported IC50: > 10 µM (inactive)

Recorded IC50 (compound C=C(C)[C@H]1Cc2c(ccc3c2O[C@@H]2COc4cc(OC)c(OC)cc4[C@@H]2C3=O)O1 ): > 10 µM (inactive)

compound Clc1ccc(CCC(Cn2ccnc2)Sc2c(Cl)cccc2Cl)cc1 (centres undefined) , IC50 observed: 6.74 µM (inactive)
